- method-notes: Pharmacokinetic study: plasma kinetics after oral administration of free or encapsulated εVin
- Assay type: in vivo, rats
- measurement-parameters: male, Wistar, rat, plasma, po, 20 mg/kg, rat plasma, oral 20 mg/kg bw εVin, free form; read-out: Tmax (converted)
measurement-label: Tmax (h)
Enter your answer as a number in h; do not include the unit.

Entry under review: Oc1ccc(/C=C/c2cc(O)cc3c2[C@@H](c2cc(O)cc(O)c2)[C@H](c2ccc(O)cc2)O3)cc1 [εVin, Trans-ε-viniferin] . Reported Tmax? 1

----------
- method-notes: Pharmacokinetic study: plasma kinetics after oral administration of free or encapsulated εVin
- Format: in vivo, rats
- measurement-parameters: male, Wistar, rat, plasma, po, 20 mg/kg, rat plasma, oral 20 mg/kg bw εVin, free form
measurement-label: Cmax (nM)
Enter your answer as a number in nM; do not include the unit.

Entry under review: Oc1ccc(/C=C/c2cc(O)cc3c2[C@@H](c2cc(O)cc(O)c2)[C@H](c2ccc(O)cc2)O3)cc1 [εVin, Trans-ε-viniferin] . Reported Cmax? 15
